Assay Target: UniProt P10635
Sequence (P10635 whole entry): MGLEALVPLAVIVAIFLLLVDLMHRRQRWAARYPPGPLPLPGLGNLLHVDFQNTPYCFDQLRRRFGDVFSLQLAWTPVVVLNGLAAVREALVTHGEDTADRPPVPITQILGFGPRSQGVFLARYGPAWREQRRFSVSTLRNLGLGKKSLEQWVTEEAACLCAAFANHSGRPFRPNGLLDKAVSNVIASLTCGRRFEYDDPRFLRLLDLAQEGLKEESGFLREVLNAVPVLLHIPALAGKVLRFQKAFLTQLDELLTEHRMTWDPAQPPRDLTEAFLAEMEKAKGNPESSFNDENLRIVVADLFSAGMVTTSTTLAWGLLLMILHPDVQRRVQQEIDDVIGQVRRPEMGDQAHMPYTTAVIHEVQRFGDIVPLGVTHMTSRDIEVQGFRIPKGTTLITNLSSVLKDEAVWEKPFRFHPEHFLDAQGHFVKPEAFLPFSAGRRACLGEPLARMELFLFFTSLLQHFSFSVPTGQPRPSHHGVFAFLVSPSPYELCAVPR
Assay: Screening test on contribution ratio of CYP2D6 in human liver microsomal metabolism
Assay type: in vitro ADME
Condition Info: 1 mg/mL human liver microsomes, 1 μM test substance, with/without 4 μM quinidine; values marked *) are reference values due to relative stability
Each entry gets no if its CYP2D6 contribution ratio stays under 30%, and yes if its CYP2D6 contribution ratio is 30% or above.

Worked examples, 3 molecules total:
Molecule	Assay Target	Classification
O=c1ccoc2ccc(CCN3CCC(Cc4ccc(Br)c(O)c4)CC3)cc12	UniProt P10635	yes
COCCOc1cc(CC2CCN(CCc3ccc4occc(=O)c4c3)CC2)ccc1Br.Cl	UniProt P10635	yes
COCCOc1cc(CC2CCN(CCc3ccc4occ(O)c(=O)c4c3)CC2)ccc1Br	UniProt P10635	no

Hi team, for `O=C1CCOc2ccc(CCN3CCC(Cc4ccc(Br)c(O)c4)CC3)cc21` , is the recorded CYP2D6 contribution ratio at or above 30%?
yes

Determine whether measured CYP2D6 contribution ratio meets or exceeds 30% for O=C1c2cc(CCN3CCC(Cc4ccc(Br)c(O)c4)CC3)ccc2OCC1O (stereo not shown)
no

Does CYP2D6 contribution ratio meet or surpass 30% for COCCOc1cc(CC2CCN(CC(O)c3ccc4c(c3)C(=O)CCO4)CC2)ccc1Br.Cl (stereo not shown) ?
no
